Entry source: PubChem BioAssay (NCI)

- Tested on: MCF7 breast
- Test name: NCI-60 one-dose screen, 48 h (100 = growth as untreated, 0 = no growth, -100 = all killed)
- Reported conditions: 10 µM unless noted
The panel holds about 83,000 compounds, 20% with a hit somewhere; the sample as a whole holds those more often.
The following compounds are shown together with reported growth values.
Give the value, in units of %, as a plain number.

Guide cases for growth, answers given:
Compound	Study system	growth / %
COc1c(B(O)O)cc(F)cc1-c1nc2ccc3[nH]ncc3c2c2c1COCC2	MCF7 breast	44.7
O=C(Nc1ccc(-c2ccc3c(c2)NC(=O)/C3=C\c2ccc[nH]2)cc1)Nc1cccc(Cl)c1	MCF7 breast	-9.34
O=C(c1ccc(Cl)cc1)C1[C@H](c2ccccc2Cl)[C@@H](c2ccccc2)NC12C(=O)Nc1ccccc12 (some centres undefined)	MCF7 breast	-19
O=C(Nc1ccc(S(=O)(=O)N2CCCCC2)cc1)C(Cl)Cl	MCF7 breast	101

Just so you know, measured growth for COc1ccc(SC2c3cc(OC)ccc3Oc3nc(N)c(C#N)c(N)c32)cc1 (centres undefined) came out at 49.2

Just so you know, measured growth for Fc1ccccc1CNc1nc(SCCN2CCOCC2)nc2c1cnn2CC(Cl)c1ccc(Br)cc1 (centres undefined) came out at 21.3

Just so you know, measured growth for CC1=C(C(=O)Nc2ccccc2)C(c2ccc3ccccc3c2)n2c(nc3ccccc32)N1 (centres undefined) came out at 9.9

Just so you know, measured growth for `Cc1cc(Cl)ccc1NC(=O)Nc1ccc(-c2ccc3c(c2)NC(=O)/C3=C\c2ccc[nH]2)cc1` came out at 18.7

----------
- Test system: SK-MEL-5 melanoma
- Test name: NCI-60 one-dose screen, 48 h (100 = growth as untreated, 0 = no growth, -100 = all killed)
- Reported conditions: 10 µM unless noted
- Method: Growth inhibition of the SK-MEL-5 human tumor cell line is measured as a screen for anti-cancer activity. Cells are grown in 96 well plates and exposed to the test compound for 48 hours. Compounds are tested at a single concentration, which is 10^-5 M for most compounds. The reported endpoint is percent growth (GI% or GIPRCNT), where numbers from 0 - 100% represent growth inhibition, and numbers from -100% - 0 represent cell death. For example, a value of 40 represents 60% growth inhibition. […]
About 83,000 compounds went through this panel and 20% of them were active in at least one assay; those are over-represented in the sample as a whole.
So basically, if growth comes in under 90% it's yes, and if it's 90% or more it's no.

Cc1ccccc1NC(=O)c1cccc(NC(=O)CCl)c1 yes
N#Cc1c(NC(=O)N2CCOCC2)n(-c2ccc(OC(F)(F)F)cc2)c2cc(F)ccc12 yes
O=C(CSc1nc2c(c(=O)[nH]1)CCCC2)Nc1ccccc1C(=O)O no

Shifting focus to the compound that follows.
For this compound, is growth lower than 90%? `COc1cc2cc(C(=O)N3C[C@@H](CCl)c4c3cc(OC(=O)N(CCC(=O)N3CCN(C)CC3)[C@H]3CCSSC3)c3ccccc43)[nH]c2c(OC)c1OC`
yes

----------
- System: EKVX NSCLC
- Test name: NCI-60 one-dose screen, 48 h
- Reported conditions: 10 µM unless noted
This is part of a sample that, as a whole, favours compounds with a hit. Of some 83,000 tested, about 20% had one in any assay. Calls of active or inactive are those of the source. Rule for the calls: active = growth percent below 10; inactive = the rest.
Respond only with the outcome that fits, drawn from TRUE = active, FALSE = inactive

Illustrative cases are given below, each with its answer.
Compound	Cat
O=C1Nc2ccc(F)cc2/C1=C/C(=O)c1cc2ccccc2oc1=O	FALSE
Cn1cc(-c2cc(N)n3nc(-c4c[nH]c5ccccc45)cc3n2)c2cc(Cl)ccc21	TRUE
COC(=O)CSC1=C(C)C(=O)C(OC)=C(OC)C1=O	FALSE

Please share the test call associated with `CCCn1c(NC(=O)c2cccc(C(N)=O)c2)nc2ccc(CN3CCCCC3)cc21` .
FALSE

Please share the test call associated with `Cn1cc(-c2cc(N)n3nc(-c4c[nH]c5ccccc45)cc3n2)c2cc(Br)ccc21` .
TRUE

Please share the test call associated with `C/C(=N/O)c1ccc(NC(=O)CSc2nnc(-c3ccc(-c4nc5ccc(Cl)cc5[nH]4)cc3)o2)cc1` .
FALSE

Please share the test call associated with `CN1C(=O)/C(=C\C(=O)c2cc3ccccc3oc2=O)c2ccccc21` .
FALSE

Please share the test call associated with `O=C(Nc1ccc(-c2ccc3c(c2)NC(=O)/C3=C\c2ccc[nH]2)cc1)Nc1ccc(Cl)c(C(F)(F)F)c1` .
FALSE

----------
- Tested on: SR leukemia
- Test name: NCI-60 one-dose screen, 48 h
- Reported conditions: 10 µM unless noted
Compounds without any hit were thinned out: in the full panel of roughly 83,000, 20% have a hit. The source made the active and inactive calls. The calls were made as follows: active = growth percent below 10; inactive = the rest.
Respond only with the outcome that fits, drawn from active, inactive

Compound	Study system	Cat
COc1cc(/C=C/C(=O)c2cnn(-c3cc(=O)[nH]c4ccccc34)c2C)cc(OC)c1OC	SR leukemia	active
O=C(N/N=C/c1occc1Br)c1[nH]c2ccc(Br)cc2c1-c1ccccc1	SR leukemia	active
C#CCN(C)CCCOc1ccc(N(CC)C(=O)c2cc(C(C)C)c(O)cc2O)cc1Cl	SR leukemia	active
N#CCc1nnc(NC(=O)c2ccc(-n3c(=O)[nH]c4ccccc4c3=O)cc2)s1	SR leukemia	inactive
NC(=Nc1ccc(OCCCCCCCCn2cnnn2)cc1)c1ccccc1	SR leukemia	inactive

Please share the test call associated with CC1=C(C(=O)OCc2ccccc2)C(c2ccc(N(C)C)cc2)n2c(nc3ccccc32)N1 (centres undefined) .
inactive

Please share the test call associated with `C=CCSc1nnc(-c2c(C)nc3sccn23)o1` .
inactive

Please share the test call associated with `COc1ccccc1NC(=O)N/N=C/c1c[nH]c2ccccc12` .
inactive

Please share the test call associated with `CC[C@]12C=CCN3CC[C@@]4(c5ccc(OC)cc5N(C)[C@H]4[C@@](O)(C(=O)OC)[C@@H]1OC(=O)CCC[P+](c1ccc(OC)cc1)(c1ccc(OC)cc1)c1ccc(OC)cc1)[C@@H]32` .
inactive

----------
- Test system: NCI-H322M lung
- Test name: NCI-60 one-dose screen, 48 h (100 = growth as untreated, 0 = no growth, -100 = all killed)
- Reported conditions: 10 µM unless noted
Compounds without any hit were thinned out: in the full panel of roughly 83,000, 20% have a hit. Active and inactive are the calls of the source. The calls were made as follows: active = growth percent below 10; inactive = the rest.
Observed property: growth

Just so you know, measured growth for `N#Cc1c(-c2ccc(F)cc2)nc(SCc2ccccc2)nc1N1CCNCC1` came out at -53.7% (active)

Just so you know, measured growth for `Cc1cccc(NCC(=O)N2CCN(c3ncnc4c3cnn4-c3ccccc3)CC2)c1` came out at 69.3% (inactive)

Just so you know, measured growth for `COc1ccc2ccccc2c1/C=C1\SC(=Nc2ccc(O)cc2)NC1=O` came out at 32.7% (inactive)

Just so you know, measured growth for CC1=C(C(=O)OCc2ccccc2)C(c2cccc3ccccc23)n2c(nc3ccccc32)N1 (centres undefined) came out at 36.6% (inactive)

Just so you know, measured growth for `C[C@@H]1CN(c2ccc3ncc(C#Cc4cncc(C(=O)Nc5ccc(CN6CCN(C)CC6)c(C(F)(F)F)c5)c4)n3n2)C[C@@H](C)O1` came out at -78.9% (active)

Just so you know, measured growth for `O=CNc1ccc(-n2cnc3cc(-c4ccc(O)cc4)ccc32)cc1` came out at 91.1% (inactive)

----------
- Tested on: BT-549 breast
- Test name: NCI-60 one-dose screen, 48 h (100 = growth as untreated, 0 = no growth, -100 = all killed)
- Reported conditions: 10 µM unless noted
This is part of a sample that, as a whole, favours compounds with a hit. Of some 83,000 tested, about 20% had one in any assay.
Observed property: growth (%)
Give the value, in units of %, as a plain number.

Molecule	growth, %
CCOc1ccccc1[C@H]1C(C(=O)c2ccc(Cl)cc2)C2(N[C@@H]1c1ccccc1)C(=O)Nc1ccc(Br)cc12 (stereo partly drawn)	-67.7

Just so you know, measured growth for COc1cc(C2CC(c3ccc(F)cc3)=Nc3c(N)nc(N)nc3N2)ccc1Oc1nc(Nc2ccc(F)cc2)nc(N(C)C)n1 (stereo not drawn) came out at 51.3

Just so you know, measured growth for `N#Cc1cc(-c2ccnc(Nc3ccc(N4CCN(C5COC5)CC4)cc3)n2)ccc1N1CCCC1` came out at 34.1

Just so you know, measured growth for `NCCCCn1c(SCCc2c[nH]c3ccccc23)nnc1-c1ccc2ccccc2n1` came out at 54.5

Just so you know, measured growth for `OC(c1ccccc1)(c1ccccc1)C1CCN(c2ccc3nnc(Cl)n3n2)CC1` came out at 2.56

Just so you know, measured growth for `Cc1nn(-c2ccccc2)c2nc(C)n(C(=O)N/N=C/c3ccccc3)c(=O)c12` came out at 101

Just so you know, measured growth for `O=C(NN1C(=O)/C(=C/C=C/c2ccc([N+](=O)[O-])o2)SC1=S)c1ccc(O)cc1` came out at -94

Just so you know, measured growth for `NC(=Nc1ccc(OCCCCCCCCn2cnnn2)cc1)c1ccccc1` came out at 18.9

Just so you know, measured growth for `CN(C)c1nc(NCCNS(=O)(=O)c2ccc(C(=O)/C=C/c3ccc(F)cc3)cc2)nc(N2CCOCC2)n1` came out at -24.8

Just so you know, measured growth for `COc1cccc(/C=C/c2nc3ccccc3c(=O)n2CC(=O)Nc2ccccc2)c1` came out at 43.9
